Values were extracted from PubChem BioAssay (NCI).

tested on: U251 CNS; assay: NCI-60 one-dose screen, 48 h; conditions: 10 µM unless noted
Compounds without any hit were thinned out: in the full panel of roughly 83,000, 20% have a hit. Calls of active or inactive are those of the source. Rule for the calls: active = growth percent below 10; inactive = the rest.
Write down the outcome that applies. Available outcomes: true (1) = active, false (0) = inactive

Which result was noted for this molecule in the test: O=C(NCCN1CCOCC1)c1cncnc1Nc1ccc2c(ccn2Cc2ccccn2)c1
false (0)

***
Identify the outcome logged in this assay for the molecule shown: Cc1cc(C(=O)Nc2cc(Nc3ncccc3-c3ncnc4nc[nH]c34)ccc2F)cc(C(C)(C)C#N)c1
false (0)

Lookup CCC(=C(c1ccc(OCCN(CC)CC)cc1)c1ccc(OCCN(CC)CC)cc1)c1ccc(Cl)cc1
true (1)

Next entry: CNC1=C([N+](=O)[O-])C(c2ccc(OC)cc2)C(C#N)=C(c2ccc[nH]2)O1 (stereo not given)
false (0)

Param item: CC(C)C(=O)Nc1ncc(C(=O)NCCN(Cc2ccccc2)C(=O)c2ccc(S(=O)(=O)Nc3ccccc3)cc2)s1
false (0)

Request: COC(=O)c1sc(-c2ccc(C)cc2)cc1O
false (0)

And the next one, Nc1n[nH]c2cccc(C#Cc3cccc(C(=O)Nc4ccc(Cl)c(C(F)(F)F)c4)c3)c12 ?
false (0)

Moving on to the next molecule: O=C1/C(=C/c2ccccc2)COc2ccc(O)cc21
false (0)

---

tested on: NCI-H23 lung; assay: NCI-60 one-dose screen, 48 h (100 = growth as untreated, 0 = no growth, -100 = all killed); conditions: 10 µM unless noted
The panel holds about 83,000 compounds, 20% with a hit somewhere; the sample as a whole holds those more often.
Give growth for every item shown.
Answers are plain numbers, in %.

Solved cases below.
I have this compound here, Nc1n[nH]c2cccc(C#Cc3cccc(C(=O)Nc4ccc(Cl)c(C(F)(F)F)c4)c3)c12 , and I need its recorded growth.
59.1

What do you have for Oc1ccc(Cc2ccc(O)c3ncccc23)c2cccnc12 ?
9.78

Next: COc1ccc(C(c2cc(OC)c(OC)c(OC)c2)n2cncn2)cc1O (stereo not drawn)
39.9

Then CC1=NN(c2cccc(Cl)c2)C(=O)/C1=C\C=C\c1ccccc1 ?
26.3

For COC(=O)[C@H]1Cc2c([nH]c3ccccc23)[C@H](c2ccc3c(c2)OCO3)N1 then?
99.7

// for each compound below, give its growth
1. CN1/C(=C/C=C/c2n(Cc3ccc4ccccc4c3)c(Cl)c(Cl)[n+]2Cc2ccc3ccccc3c2)Oc2ccccc21
2. CC(C)(C)CC(C)(C)Nc1c(-c2c(O)c3ccccc3oc2=O)nc2sccn12
3. CCN1CCN(c2nc(NNC(=O)c3ccc(OC)cc3)nc(N3CCN(C(c4ccccc4)c4ccccc4)CC3)n2)CC1
4. CC(C)n1nc(-c2ccc3oc(N)nc3c2)c2c(N)ncnc21
5. COC(=O)c1nc(-c2ccccc2)oc1S(=O)(=O)N1CCN(c2ccc(OC)cc2)CC1
6. O=C(Nc1ncc(Cc2ccc(Cl)cc2)s1)C1=NCCCCN1
7. CN1CCN(CC(=O)N(C)c2ccc(N=C(c3ccccc3)c3c(O)[nH]c4ccc([N+](=O)[O-])cc34)cc2)CC1

1: -80; 2: 97.9; 3: 53.3; 4: 2.3; 5: 89.1; 6: 99; 7: 80.4

// batch mode: one growth value per listed entry
1. Cc1csc(Nc2nc(-c3cccc(Cl)c3)nc(C(Cl)(Cl)Cl)n2)n1
2. C/C=C(/C)C(=O)O[C@@H]1CC(C)(C)CC2C34OC(=O)[C@@]21CC[C@@]3(C)[C@]1(C)CCC2C(C)(C)C(=O)CC[C@]2(C)C1C[C@@H]4O (stereo partly drawn)
3. Nc1nc(N)c2c(n1)NC(c1cccc(Nc3ccnc4cc(C(F)(F)F)ccc34)c1)CC(c1ccc(Cl)cc1)=N2 (stereo not drawn)
4. CN1CCN(Cc2ccc(NC(=O)c3cncc(C#Cc4c(N)ncc5cc(F)ccc45)c3)cc2C(F)(F)F)CC1
5. Cc1ccc(OCCOCCOCCOCCOc2ccc(C)n(O)c2=S)c(=S)n1O
6. COc1ccc(/C=C/C(=O)c2ccc(-n3cc(CN4CCN(c5cc6c(cc5F)c(=O)c(C(=O)O)cn6C5CC5)CC4)nn3)cc2)cc1

1. 79
2. 73.5
3. 64.7
4. -39.5
5. 18.5
6. 78.7
